meta.source: patent US20040116336A1

- target-desc: APJ (Homo sapiens)
- Construct: expressed in transfected cells; host or cells: CHO (CHO-A10; clone 6 for the cAMP assay)
- assay-overview: Receptor binding assay-2 (compound in Reference Example 2 used)
- run-parameters: compound in Reference Example 2 used as ligand; read-out: IC50
observable: pIC50
Remember the convention: pIC50 equals -log10 of concentration in molar.

In: Value lookup for pIC50; key = CSCC[C@H](NC(=O)[C@@H]1CCCN1C(=O)CNC(=O)[C@H](CCCCN)NC(=O)[C@H](Cc1c[nH]cn1)NC(=O)[C@H](CO)NC(=O)[C@H](CC(C)C)NC(=O)[C@H](CCCNC(=N)N)NC(=O)[C@@H]1CCCN1C(=O)[C@@H](N)CCCNC(=N)N)C(=O)N1CCC[C@H]1C(=O)N[C@@H](Cc1ccc2ccccc2c1)C(=O)O [Compound in Ex. 32]
Out: 9.46

====

- target-desc: APJ (Homo sapiens, UniProt P35414)
- Construct: expressed in transfected cells; host or cells: CHO (CHO-A10; clone 6 for the cAMP assay)
- Sequence (P35414 1-380): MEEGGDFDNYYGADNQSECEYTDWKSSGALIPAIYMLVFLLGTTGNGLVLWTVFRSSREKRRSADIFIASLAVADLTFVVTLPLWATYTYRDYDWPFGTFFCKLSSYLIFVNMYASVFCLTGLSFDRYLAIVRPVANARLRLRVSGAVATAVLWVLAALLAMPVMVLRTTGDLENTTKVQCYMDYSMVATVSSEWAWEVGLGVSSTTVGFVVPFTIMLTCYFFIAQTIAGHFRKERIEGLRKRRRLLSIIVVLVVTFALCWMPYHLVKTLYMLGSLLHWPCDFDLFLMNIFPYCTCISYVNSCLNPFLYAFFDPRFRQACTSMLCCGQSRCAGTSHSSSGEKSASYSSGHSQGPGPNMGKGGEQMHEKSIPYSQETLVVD
- assay-overview: Receptor binding assay-2 (compound in Reference Example 2 used)
- run-parameters: compound in Reference Example 2 used as ligand; read-out: IC50
Non-standard residues stand in square brackets, D forms with d. Residues, ends and D or L forms follow the SMILES beside them. Phe(4-Cl) = N[C@@H](Cc1ccc(Cl)cc1)C(=O)O; Cha = N[C@@H](CC1CCCCC1)C(=O)O
observable: pIC50
Remember the convention: pIC50 equals -log10 of concentration in molar.

Please review the following examples before continuing.
molecule: CSCC[C@H](NC(=O)[C@@H]1CCCN1C(=O)CNC(=O)[C@H](CCCCN)NC(=O)[C@H](Cc1c[nH]cn1)NC(=O)[C@H](CO)NC(=O)[C@H](CC(C)C)NC(=O)[C@H](CCCNC(=N)N)NC(=O)[C@@H]1CCCN1C(=O)[C@@H](N)CCCNC(=N)N)C(=O)N[C@@H](CC1CCCCC1)C(=O)O [Compound in Ex. 36] (H-RPRLSHKGPM[Cha]-OH; N-terminus and C-terminus assumed)
pIC50: 9.29
//
molecule: CC(C)C[C@H](NC(=O)[C@H](CCCNC(=N)N)NC(=O)[C@@H]1CCCN1C(=O)[C@@H](N)CCCNC(=N)N)C(=O)N[C@@H](Cc1ccccc1)C(=O)N[C@@H](C)C(=O)N[C@@H](CCCNC(=N)N)C(=O)NCC(=O)N1CCC[C@H]1C(=O)N[C@@H](CC1CCCCC1)C(=O)N1CCC[C@H]1C(=O)N[C@@H](Cc1ccc(Cl)cc1)C(=O)O [Compound in Ex. 12] (H-RPRLFARGP[Cha]P[Phe(4-Cl)]-OH)
pIC50: 9.42

In: Value lookup for pIC50; key = CC(C)C[C@H](NC(=O)[C@H](CCCNC(=N)N)NC(=O)[C@@H]1CCCN1C(=O)[C@@H](N)CCCNC(=N)N)C(=O)N[C@@H](Cc1ccccc1)C(=O)N[C@@H](Cc1c[nH]cn1)C(=O)N[C@@H](CCCCN)C(=O)NCC(=O)N1CCC[C@H]1C(=O)N[C@@H](CC1CCCCC1)C(=O)N[C@@H](Cc1ccc(Cl)cc1)C(=O)O [Compound in Ex. 37] (H-RPRLFHKGP[Cha][Phe(4-Cl)]-OH; N-terminus and C-terminus assumed)
Out: 9.27

====

pEC50 values for the molecules below.
- target-desc: APJ (Homo sapiens)
- Construct: expressed in transfected cells; host or cells: CHO (CHO-A10; clone 6 for the cAMP assay)
- assay-overview: Inhibitory activity on forskolin-stimulated cAMP production in CHO-A10 clone 6 cells
- Assay type: cell-based
- run-parameters: read-out: EC50
Starred links: 1 amine or outer side, 2 acyl side, 3 side chain; linkers in the order of their positions; H or OH if unused. Non-standard residues stand in square brackets, D forms with d. Residues, ends and D or L forms follow the SMILES beside them. Phe(4-Cl) = N[C@@H](Cc1ccc(Cl)cc1)C(=O)O; Adipoyl = O=C(CCCCC(=O)[*:2])[*:1]; Lys(Me2) = CN(C)CCCC[C@H](N)C(=O)O; Cha = N[C@@H](CC1CCCCC1)C(=O)O; Dap = NC[C@H](N)C(=O)O
Remember the convention: pEC50 equals -log10 of concentration in molar.

Please review the following examples before continuing.
molecule: CC(C)C[C@H](NC(=O)[C@H](CCCNC(=N)N)NC(=O)[C@@H]1CCCN1C(=O)[C@@H](N)CCCNC(=N)N)C(=O)N[C@@H](CO)C(=O)N[C@@H](C)C(=O)N[C@@H](CCCNC(=N)N)C(=O)NCC(=O)N1CCC[C@H]1C(=O)N[C@@H](CC1CCCCC1)C(=O)N1CCC[C@H]1C(=O)N[C@@H](Cc1ccccc1)C(=O)O [Compound in Ex. 11] (H-RPRLSARGP[Cha]PF-OH; N-terminus and C-terminus assumed)
pEC50: 9.23

molecule: CC(C)C[C@H](NC(=O)[C@H](CCCNC(=N)N)NC(=O)[C@@H]1CCCN1C(=O)[C@H](CCCNC(=N)N)NC(=O)[C@H](CCC(N)=O)NC(=O)[C@H](CCCNC(=N)N)NC(=O)[C@@H](N)CCCNC(=N)N)C(=O)N[C@@H](CO)C(=O)N[C@@H](C)C(=O)N[C@@H](CCCNC(=N)N)C(=O)NCC(=O)NCC(=O)N[C@@H](CC1CCCCC1)C(=O)O [Compound in Ex. 62] (H-RRQRPRLSARGG[Cha]-OH; N-terminus and C-terminus assumed)
pEC50: 9.64

molecule: CC(C)C[C@H](NC(=O)[C@H](CCCNC(=N)N)NC(=O)[C@@H]1CCCN1C(=O)[C@@H](N)CCCNC(=N)N)C(=O)N[C@@H](CO)C(=O)N[C@@H](Cc1c[nH]cn1)C(=O)N[C@@H](CCCCN)C(=O)NCC(=O)N1CCC[C@H]1C(=O)N[C@@H](CC1CCCCC1)C(=O)N1CCC[C@H]1C(=O)N[C@@H](Cc1ccc(Cl)cc1)C(=O)O
pEC50: 9.39

molecule: CSCC[C@H](NC(=O)[C@@H]1CCCN1C(=O)CNC(=O)[C@H](CCCNC(=N)N)NC(=O)[C@H](C)NC(=O)[C@H](CO)NC(=O)[C@H](CC(C)C)NC(=O)[C@H](CCCNC(=N)N)NC(=O)[C@@H]1CCCN1C(=O)[C@H](CCCNC(=N)N)NC(=O)[C@H](CCC(N)=O)NC(=O)[C@H](CCCNC(=N)N)NC(=O)[C@@H](N)CCCNC(=N)N)C(=O)O
pEC50: 9.74

molecule: CC(C)C[C@H](NC(=O)[C@H](CCCNC(=N)N)NC(=O)[C@@H]1CCCN1C(=O)[C@@H](N)CCCNC(=N)N)C(=O)N[C@@H](CO)C(=O)N[C@@H](CNC(=O)CCCCC(=O)O)C(=O)N[C@@H](CCCNC(=N)N)C(=O)NCC(=O)N1CCC[C@H]1C(=O)N[C@@H](CC1CCCCC1)C(=O)N1CCC[C@H]1C(=O)N[C@@H](Cc1ccc(Cl)cc1)C(=O)O [Compound in Ex. 68] (H-RPRLS[Dap](Adipoyl)RGP[Cha]P[Phe(4-Cl)]-OH; N-terminus and C-terminus assumed)
pEC50: 9.38

In: Value lookup for pEC50; key = CSCC[C@H](NC(=O)[C@@H]1CCCN1C(=O)CNC(=O)[C@H](CCCCN(C)C)NC(=O)[C@H](C)NC(=O)[C@H](CO)NC(=O)[C@H](CC(C)C)NC(=O)[C@H](CCCNC(=N)N)NC(=O)[C@@H]1CCCN1C(=O)[C@@H](N)CCCNC(=N)N)C(=O)N1CCC[C@H]1C(=O)N[C@@H](Cc1ccccc1)C(=O)O [Compound in Ex. 64] (H-RPRLSA[Lys(Me2)]GPMPF-OH; N-terminus and C-terminus assumed)
Out: 9.42

In: Value lookup for pEC50; key = CSCC[C@H](NC(=O)[C@@H]1CCCN1C(=O)CNC(=O)[C@H](CCCCN)NC(=O)[C@H](Cc1c[nH]cn1)NC(=O)[C@H](CO)NC(=O)[C@H](CC(C)C)NC(=O)[C@H](CCCNC(=N)N)NC(=O)[C@@H]1CCCN1C(=O)[C@H](CCCNC(=N)N)NC(=O)[C@H](CCCNC(=N)N)NC(=O)[C@H](CCCNC(=N)N)NC(=O)[C@@H](N)CCCNC(=N)N)C(=O)N1CCC[C@H]1C(=O)N[C@@H](Cc1ccccc1)C(=O)O
Out: 9.49

In: Value lookup for pEC50; key = CSCC[C@H](NC(=O)[C@@H]1CCCN1C(=O)CNC(=O)[C@H](CCCCN)NC(=O)[C@H](Cc1c[nH]cn1)NC(=O)[C@H](CO)NC(=O)[C@H](CC(C)C)NC(=O)[C@H](CCCNC(=N)N)NC(=O)[C@@H]1CCCN1C(=O)[C@@H](N)CCCNC(=N)N)C(=O)N1CCC[C@H]1C(=O)N[C@@H](Cc1ccc2ccccc2c1)C(=O)O
Out: 10.00

In: Value lookup for pEC50; key = CSCC[C@H](NC(=O)[C@@H]1CCCN1C(=O)CNC(=O)[C@H](CCCCN)NC(=O)[C@H](Cc1c[nH]cn1)NC(=O)[C@H](CO)NC(=O)[C@H](CC(C)C)NC(=O)[C@H](CCCNC(=N)N)NC(=O)[C@@H]1CCCN1C(=O)[C@H](CCCNC(=N)N)NC(=O)[C@H](C)NC(=O)[C@H](CCCNC(=N)N)NC(=O)[C@@H](N)CCCNC(=N)N)C(=O)N1CCC[C@H]1C(=O)N[C@@H](Cc1ccccc1)C(=O)O
Out: 9.60

In: Value lookup for pEC50; key = CSCC[C@H](NC(=O)[C@@H]1CCCN1C(=O)CNC(=O)[C@H](CCCCN)NC(=O)[C@H](Cc1c[nH]cn1)NC(=O)[C@H](CO)NC(=O)[C@H](CC(C)C)NC(=O)[C@H](CCCNC(=N)N)NC(=O)[C@@H]1CCCN1C(=O)[C@@H](N)CCCNC(=N)N)C(=O)N[C@@H](CC1CCCCC1)C(=O)O [Compound in Ex. 36] (H-RPRLSHKGPM[Cha]-OH; N-terminus and C-terminus assumed)
Out: 9.66
